Test system: JEG-3
Assay: Primary qHTS to identify gynecologic anti-cancer compounds using libraries of approved drugs and bioactive compounds (AID 1345084); note: % is set by controls: 0 for no effect and ±100 for the full control effect; nearly all actives have a fitted effect of over 55% in size
Conditions: Gynecologic cancer cell panel viability, ATPlite luminescence, 48 h; series mostly up to 57.5 µM
Text: National Center for Advancing Translational Sciences [NCATS] Assay Overview: Chemotherapeutic drug responses vary from cancer to cancer and from patient to patient. […] ATPlite is a luminescence based assay reliant on the conversion of a luciferase substrate to light in the presence of ATP. As a cytotoxic compound will suppress growth and decrease the number of cells, the concentration of ATP will decrease, and less light signal will be detected in the well. […]
Results filed as inconclusive are left out. Activity calls are given as the source filed them. Calls come from the whole dose curve; as a rule, active = well fitted cell-killing curve with a large enough effect; inconclusive = small, poorly fitted or top-dose-only effect, or effect the other way; inactive = flat fitted curve, though single readings scatter.
Experimental Endpoint: activity change, negative = cytotoxicity

Compound	Target Of Assay	Experimental Endpoint	Result
O=C(C[C@@H]1C(C(=O)O)=CO[C@@H](O[C@@H]2O[C@H](CO)[C@@H](O)[C@H](O)[C@H]2O)/C1=C\CO)OCCc1ccc(O)cc1	JEG-3	activity change, negative = cytotoxicity	inactive
O=S(=O)(O)c1ccc(Nc2ncnc3c2ncn3[C@@H]2O[C@H](CO)[C@@H](O)[C@H]2O)cc1	JEG-3	activity change, negative = cytotoxicity	inactive
CC(=O)O[C@@H]1C(O)C[C@@]2(C)C(CC[C@@H](C)C23Cc2c(O)cc4c(c2O3)CNC4=O)C1(C)C (stereo partly drawn)	JEG-3	activity change, negative = cytotoxicity	inactive
CC1(C)O[C@H]2CC(=O)OC[C@@]23C1=C(O)C(=O)[C@]1(C)C3CC[C@@]2(C)[C@H](c3ccoc3)OC(=O)[C@H]3O[C@]321 (stereo partly drawn)	JEG-3	activity change, negative = cytotoxicity	inactive
COC(=O)C(CC1CCCC1)c1ccc(S(C)(=O)=O)cc1 (stereo not drawn)	JEG-3	activity change, negative = cytotoxicity	inactive
C=C1CC2C3(C)C(O)CC(=O)C(C)(C)C3C(O)C(OC(C)=O)C2(C)C2C(=O)OC(C)(C(=O)OC)C(=O)C12C (stereo not drawn)	JEG-3	activity change, negative = cytotoxicity	inactive
O=c1[nH]ccc2nc(-c3ccc(CN4CCC(c5nc(-c6ccccn6)n[nH]5)CC4)cc3)c(-c3ccccc3)cc12	JEG-3	activity change, negative = cytotoxicity	inactive
N#Cc1cccc(-c2nc(-c3cccnc3)no2)c1	JEG-3	activity change, negative = cytotoxicity	inactive

---

Known activity change, negative = thiol reactive of a selection of compounds
test: Primary fluorescence-based thiol-reactive (MSTI) qHTS assay for identification of artifact compounds. (AID 1845221); conditions: MSTI thiol-reactivity probe, 1 h; series mostly up to 53.8 µM;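 note: thiol-reactive compounds lower the probe fluorescence signal; nearly all actives have a fitted effect of over 65% in size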
Results filed as inconclusive are left out. Calls of active or inactive are those of the source. Calls follow the shape of the dose curve; as a rule, active = well fitted inhibition curve with a large enough effect; inconclusive = small, poorly fitted or top-dose-only effect; inactive = no such curve, though single readings can be large or run the other way.
Experimental Endpoint: activity change, negative = thiol reactive

Compound	Result
CC(=O)OC1C(CO)OC(O[C@H]2[C@H](OC(=O)[C@]34CCC(C)(C)C[C@H]3C3=CCC5[C@@]6(C)CC[C@H](O[C@@H]7O[C@H](C(=O)O)[C@@H](O)[C@H](O[C@@H]8OC[C@@H](O)[C@H](O)[C@H]8O)[C@H]7O[C@@H]7O[C@H](CO)[C@H](O)[C@H](O)[C@H]7O)[C@@](C)(C=O)C6CC[C@@]5(C)[C@]3(C)C[C@H]4O)O[C@H](C)[C@H](OC3OC(C)C(OC4OCC(O)C(O)C4O)C(O)C3O)[C@@H]2O)C(O)C1O (some centres not stated)	290% [at 11.5 µM] (inactive)
CC1(C)CC[C@]2(C(=O)O[C@@H]3O[C@H](CO[C@@H]4O[C@H](CO)[C@@H](O)[C@H](O)[C@H]4O)[C@@H](O)[C@H](O[C@@H]4O[C@H](CO)[C@@H](O)[C@H](O)[C@H]4O)[C@H]3O)CC[C@]3(C)C(=CCC4[C@@]5(C)CC[C@H](O[C@@H]6OC[C@@H](O)[C@H](O)[C@H]6O)[C@@](C)(C(=O)O)C5CC[C@]43C)[C@@H]2C1 (some centres not stated)	183% [at 11.5 µM] (inactive)

---

tested on: C33A; assay: Primary qHTS to identify gynecologic anti-cancer compounds using libraries of approved drugs and bioactive compounds (AID 1345084); conditions: Gynecologic cancer cell panel viability, ATPlite luminescence, 48 h; series mostly up to 57.5 µM; note: % is set by controls: 0 for no effect and ±100 for the full control effect; nearly all actives have a fitted effect of over 55% in size
Records with an inconclusive call do not appear. Activity calls are given as the source filed them. The call rests on the fitted dose curve; in most records, active means well fitted cell-killing curve with a large enough effect; inconclusive means small, poorly fitted or top-dose-only effect, or effect the other way; inactive means flat fitted curve, though single readings scatter. *1 amine or outer side, *2 acyl side, *3 side chain or, on linkers, in order; H or OH if unused. Where a SMILES comes first, the peptide text is derived from it. [ ]: non-standard residue; d: D form. X13 = O=C(C(CC(O)CO)O[*:1])[*:2]; NMeV = CN[CH](C(=O)O)C(C)C; NMeA = CN[CH](C)C(=O)O; βAla = NCCC(=O)O
Experimental Endpoint: activity change, negative = cytotoxicity

Compound	Result
C[C@@H]1CC[C@]2(C(=O)O)CC[C@]3(C)C(=CCC4[C@@]5(C)C[C@@H](O)[C@@H](O)C(C)(C)C5CC[C@]43C)C2[C@]1(C)O (stereo partly specified)	inactive
C=C1C2(C)CC3C4(C)C=CC(=O)OC(C)(C)C4CCC3(C)C1(C(=O)OC)C(=O)C(C)(O)C2=O (stereo unspecified)	inactive
CC(C)=CCC[C@@](C)(O)[C@H]1CC[C@]2(C)[C@@H]1[C@H](O)CC1[C@@]3(C)CC[C@H](O[C@@H]4O[C@H](CO)[C@@H](O)[C@H](O)[C@H]4O[C@@H]4O[C@H](CO)[C@@H](O)[C@H](O)[C@H]4O)C(C)(C)[C@@H]3CC[C@]12C (stereo partly specified)	inactive
O=C(/C=C/c1ccc(O)cc1)OCC1OC(O)C(OC2OC(CO)C(O)C(O)C2O)C(O)C1O (stereo unspecified)	inactive
CCC(C)C1NC(=O)C2CCCN2C(=O)C(CC(O)CO)OC(=O)CCNC(=O)C(C)N(C)C(=O)C(C(C)C)N(C)C1=O (stereo unspecified) (cyclo([X13]PI[NMeV][NMeA][βAla]); configuration not given here)	inactive
COc1cc(OC)cc(-c2ccc3c(-c4ccc(F)cc4)[nH]nc3n2)c1	inactive

---

test system: Tov-21-G; assay: Primary qHTS to identify gynecologic anti-cancer compounds using libraries of approved drugs and bioactive compounds (AID 1345084); conditions: Gynecologic cancer cell panel viability, ATPlite luminescence, 48 h; series mostly up to 57.5 µM; note: % is set by controls: 0 for no effect and ±100 for the full control effect; nearly all actives have a fitted effect of over 55% in size
Results filed as inconclusive are left out. Active and inactive are the calls of the source. The call rests on the fitted dose curve; in most records, active means well fitted cell-killing curve with a large enough effect; inconclusive means small, poorly fitted or top-dose-only effect, or effect the other way; inactive means flat fitted curve, though single readings scatter. Where a SMILES comes first, the peptide text is derived from it. The star is where a group is joined. βNA = c1ccc2cc(N*)ccc2c1; Cbz = O=C(OCc1ccccc1)*
Experimental Endpoint: activity change, negative = cytotoxicity

Compound	Result
CCC(C)C(=O)O[C@H]1[C@@H](O[C@H]2O[C@H](CO)[C@@H](O)[C@H](O)[C@H]2O)O[C@H](CO)[C@@H](O)[C@@H]1O (some centres not stated)	inactive
C=C1CCC2C(C)(C)CC(O)CC2(C)C1CCC(C)CC(=O)O (configuration not stated)	inactive
CC1=C2CC(C)(C)CC2C(O)C2=C(C1)C(=O)OC2O (configuration not stated)	inactive
CC(C)CC(NC(=O)OCc1ccccc1)C(=O)NC(CC(C)C)C(=O)NC(CCC(=O)O)C(=O)Nc1ccc2ccccc2c1 (stereo not drawn) (Cbz-Leu-Leu-Glu-βNA; configuration not given here)	inactive
C=C1C(=O)O[C@@H]2/C=C(\C)CC/C=C(\C(=O)O[C@@H]3O[C@H](CO)[C@@H](O)[C@H](O)[C@H]3O)CC[C@@H]12	inactive
CC(C)=CCC[C@](C)(O[C@@H]1O[C@H](CO[C@@H]2OC[C@H](O)[C@H](O)[C@H]2O)[C@@H](O)[C@H](O)[C@H]1O)[C@H]1CC[C@]2(C)[C@@H]1[C@H](O)C[C@@H]1[C@@]3(C)CC[C@H](O[C@@H]4O[C@H](CO)[C@@H](O)[C@H](O)[C@H]4O[C@@H]4O[C@H](CO)[C@@H](O)[C@H](O)[C@H]4O)C(C)(C)[C@@H]3CC[C@]12C	inactive
COc1ccnc2[nH]cc(C(=O)C(=O)N3CCN(C(=O)c4ccccc4)CC3C)c12 (configuration not stated)	inactive

---

test system: C33A; assay: Primary qHTS to identify gynecologic anti-cancer compounds using libraries of approved drugs and bioactive compounds (AID 1345084); details: Gynecologic cancer cell panel viability, ATPlite luminescence, 48 h; series mostly up to 57.5 µM; note: % is set by controls: 0 for no effect and ±100 for the full control effect; nearly all actives have a fitted effect of over 55% in size
Records with an inconclusive call do not appear. The source made the active and inactive calls. Calls follow the shape of the dose curve; as a rule, active = well fitted cell-killing curve with a large enough effect; inconclusive = small, poorly fitted or top-dose-only effect, or effect the other way; inactive = flat fitted curve, though single readings scatter. *1 amine or outer side, *2 acyl side, *3 side chain or, on linkers, in order; H or OH if unused. Where a SMILES comes first, the peptide text is derived from it. [ ]: non-standard residue; d: D form. The star is where a group is joined. ξ: configuration not given here. X9 = CCC(C)(N*)C(=O)C1CC[C@@H](C(=O)N[C@@H](Cc2ccccc2)C(=O)NCC(=O)O)N1; X8 = O=C([C@@H]1CC(O)CN1[*:1])[*:2]; aIle = CC[C@@H](C)[C@H](N)C(=O)O; Thr(3ξ) = CC(O)[C@H](N)C(=O)O; ξIva = CCC(C)(N)C(=O)O; Aib = CC(C)(N)C(=O)O

Compound	Target Of Assay	activity change, negative = cytotoxicity
COc1cc(Nc2nc3c(s2)CCCC3c2ccccc2)ccc1-n1cnc(C)c1 (stereo not given)	C33A	6.98% [at 11.6 µM] (inactive)
C=C1[C@H]2CCC3[C@]4(C)CCC[C@@](C)(C(=O)O)C4CC[C@]3(C2)[C@H]1OC(C)=O (stereo not given in full)	C33A	inactive
CC[C@@H](C)[C@H](NC(=O)C(C)(C)NC(=O)[C@H](CCC(N)=O)NC(=O)C(C)(CC)NC(=O)[C@H](Cc1c[nH]c2ccccc12)NC(C)=O)C(=O)N[C@H](C(=O)NC(C)(C)C(=O)N[C@@H](CC(C)C)C(=O)NC(C)(C)C(=O)N1CCC[C@H]1C(=O)N[C@@H](CCC(N)=O)C(=O)NC(C)(C)C(=O)N1CC(O)C[C@H]1C(=O)NC(C)(CC)C(=O)C1CC[C@@H](C(=O)N[C@@H](Cc2ccccc2)C(=O)NCC(=O)O)N1)C(C)O (stereo not given in full) (Ac-W[ξIva]Q[Aib][aIle][Thr(3ξ)][Aib]L[Aib]PQ[Aib][X8]-X9)	C33A	-11% [at 6.55 µM] (inactive)
CN[C@H](CNC(=O)N1CCC[C@@H]([C@@H](OCCNC(=O)OC)c2cccc(Cl)c2)C1)C[C@H]1CCCOC1	C33A	inactive
C=C1CCC2C(C)(C(=O)O)CCCC2(C)C1CC/C(C)=C\CO (stereo not given)	C33A	inactive
